Data credit: ChEMBL document CHEMBL5344409

molecular target: UniProtKB Q13490; test: Induction of cIAP1 degradation in human MCF7 cells at 1 uM measured after 18 hrs by western blot analysis; type: cell-based
Sequence (Q13490 whole entry): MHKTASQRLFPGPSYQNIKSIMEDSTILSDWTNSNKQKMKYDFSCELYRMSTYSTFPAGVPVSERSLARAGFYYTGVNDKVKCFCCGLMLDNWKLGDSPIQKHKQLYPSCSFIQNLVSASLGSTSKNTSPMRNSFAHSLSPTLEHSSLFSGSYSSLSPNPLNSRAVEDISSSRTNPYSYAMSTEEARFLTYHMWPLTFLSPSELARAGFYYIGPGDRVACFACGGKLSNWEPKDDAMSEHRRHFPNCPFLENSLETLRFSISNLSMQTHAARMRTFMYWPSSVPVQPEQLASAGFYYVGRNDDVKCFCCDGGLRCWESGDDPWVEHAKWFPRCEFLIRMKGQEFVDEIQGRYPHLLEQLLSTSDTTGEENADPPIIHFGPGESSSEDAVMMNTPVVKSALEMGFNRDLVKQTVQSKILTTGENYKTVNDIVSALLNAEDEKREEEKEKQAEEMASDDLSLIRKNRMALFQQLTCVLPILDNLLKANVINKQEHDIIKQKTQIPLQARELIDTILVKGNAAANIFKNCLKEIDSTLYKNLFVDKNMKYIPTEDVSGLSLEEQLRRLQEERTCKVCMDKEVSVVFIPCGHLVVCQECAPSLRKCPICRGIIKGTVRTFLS
reported.property: Activity (%)

CNC(C)C(=O)NC(C(=O)N1Cc2cc(OCCCCCNc3ccc4c(c3)C(=O)N(C3CCC(=O)NC3=O)C4=O)ccc2C[C@H]1C(=O)NC1CCCc2ccccc21)C(C)(C)C (single isomer, unassigned)	98
CN[C@@H](C)C(=O)N[C@H](C(=O)N1Cc2cc(OCCCCCCCCNC(=O)C3CN(c4ccc5c(c4)C(=O)N(C4CCC(=O)NC4=O)C5=O)C3)ccc2C[C@H]1C(=O)N[C@@H]1CCCc2ccccc21)C(C)(C)C (stereo partly drawn)	90
CN[C@@H](C)C(=O)N[C@H](C(=O)N1Cc2cc(OCCCCCCCCNC(=O)C3CCN(c4ccc5c(c4)C(=O)N(C4CCC(=O)NC4=O)C5=O)CC3)ccc2C[C@H]1C(=O)N[C@@H]1CCCc2ccccc21)C(C)(C)C (stereo partly drawn)	97

###

molecular target: Protein cereblon/Baculoviral IAP repeat-containing protein 3 (Homo sapiens) (UniProt Q13489+Q96SW2); assay: PROTAC activity at CRBN/cIAP2 in human MCF7 cells assessed as induction of cIAP2 degradation at 1 uM measured after 18 hrs by western blot analysis; format: cell-based
Sequence (Q13489 whole entry, looked up): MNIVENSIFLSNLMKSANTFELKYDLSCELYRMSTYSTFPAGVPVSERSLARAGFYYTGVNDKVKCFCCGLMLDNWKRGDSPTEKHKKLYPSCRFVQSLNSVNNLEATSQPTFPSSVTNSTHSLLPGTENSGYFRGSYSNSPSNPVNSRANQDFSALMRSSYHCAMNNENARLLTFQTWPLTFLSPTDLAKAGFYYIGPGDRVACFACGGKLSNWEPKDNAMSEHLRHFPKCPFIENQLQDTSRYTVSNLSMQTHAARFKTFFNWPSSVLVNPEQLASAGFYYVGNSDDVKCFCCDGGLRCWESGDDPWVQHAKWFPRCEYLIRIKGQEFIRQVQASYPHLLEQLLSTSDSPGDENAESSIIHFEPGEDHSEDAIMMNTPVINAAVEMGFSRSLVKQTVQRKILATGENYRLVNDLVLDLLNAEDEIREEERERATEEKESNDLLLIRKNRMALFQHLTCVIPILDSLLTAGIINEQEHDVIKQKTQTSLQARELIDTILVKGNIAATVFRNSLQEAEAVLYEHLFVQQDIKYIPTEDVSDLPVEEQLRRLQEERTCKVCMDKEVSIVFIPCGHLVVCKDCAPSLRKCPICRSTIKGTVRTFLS
Sequence (Q96SW2 whole entry, looked up): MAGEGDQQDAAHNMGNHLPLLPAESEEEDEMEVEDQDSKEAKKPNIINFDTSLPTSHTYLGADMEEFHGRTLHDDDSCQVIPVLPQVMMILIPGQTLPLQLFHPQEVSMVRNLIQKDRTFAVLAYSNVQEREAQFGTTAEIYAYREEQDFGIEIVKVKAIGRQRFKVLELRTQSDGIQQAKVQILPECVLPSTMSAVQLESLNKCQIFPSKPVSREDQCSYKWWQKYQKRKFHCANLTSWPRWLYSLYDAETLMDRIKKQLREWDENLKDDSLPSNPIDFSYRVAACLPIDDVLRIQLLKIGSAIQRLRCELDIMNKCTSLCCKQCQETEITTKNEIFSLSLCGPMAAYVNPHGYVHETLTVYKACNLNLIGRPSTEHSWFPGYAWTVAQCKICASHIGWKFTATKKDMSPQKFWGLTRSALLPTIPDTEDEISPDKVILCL
reported.property: Activity (%)

CN[C@@H](C)C(=O)N[C@H](C(=O)N1Cc2cc(OCCCCCCCCNC(=O)C3CN(c4ccc5c(c4)C(=O)N(C4CCC(=O)NC4=O)C5=O)C3)ccc2C[C@H]1C(=O)N[C@@H]1CCCc2ccccc21)C(C)(C)C (stereo not given in full)	97
CNC(C)C(=O)NC(C(=O)N1Cc2cc(OCCCCCNc3ccc4c(c3)C(=O)N(C3CCC(=O)NC3=O)C4=O)ccc2C[C@H]1C(=O)NC1CCCc2ccccc21)C(C)(C)C (single isomer, unassigned)	98
CN[C@@H](C)C(=O)N[C@H](C(=O)N1Cc2cc(OCCCCCNC(=O)C3CCN(c4cccc5c4C(=O)N(C4CCC(=O)NC4=O)C5=O)CC3)ccc2C[C@H]1C(=O)N[C@@H]1CCCc2ccccc21)C(C)(C)C (stereo not given in full)	90
CN[C@@H](C)C(=O)N[C@H](C(=O)N1Cc2cc(OCCCCCNC(=O)COc3ccc4c(c3)C(=O)N(C3CCC(=O)NC3=O)C4=O)ccc2C[C@H]1C(=O)N[C@@H]1CCCc2ccccc21)C(C)(C)C (stereo not given in full)	100
CN[C@@H](C)C(=O)N[C@H](C(=O)N1Cc2cc(OCCCCCCCCNC(=O)C3CCN(c4ccc5c(c4)C(=O)N(C4CCC(=O)NC4=O)C5=O)CC3)ccc2C[C@H]1C(=O)N[C@@H]1CCCc2ccccc21)C(C)(C)C (stereo not given in full)	99

###

molecular target: UniProt:Q13490; assay: Induction of cIAP1 degradation in human MCF7 cells at 0.1 uM measured after 18 hrs by western blot analysis; type: cell-based
reported.property: Activity (%)

CN[C@@H](C)C(=O)N[C@H](C(=O)N1Cc2cc(OCCOCCNC(=O)C3CCN(c4ccc5c(c4)C(=O)N(C4CCC(=O)NC4=O)C5=O)CC3)ccc2C[C@H]1C(=O)N[C@@H]1CCCc2ccccc21)C(C)(C)C (stereo partly drawn)	94
CN[C@@H](C)C(=O)N[C@H](C(=O)N1Cc2cc(OCCCCCCCCNC(=O)C3CN(c4ccc5c(c4)C(=O)N(C4CCC(=O)NC4=O)C5=O)C3)ccc2C[C@H]1C(=O)N[C@@H]1CCCc2ccccc21)C(C)(C)C (stereo partly drawn)	87
CN[C@@H](C)C(=O)N[C@H](C(=O)N1Cc2cc(OCCCCCNC(=O)C3CCN(c4ccc5c(c4)C(=O)N(C4CCC(=O)NC4=O)C5=O)CC3)ccc2C[C@H]1C(=O)N[C@@H]1CCCc2ccccc21)C(C)(C)C (stereo partly drawn)	91

###

target: Protein cereblon/E3 ubiquitin-protein ligase XIAP (Homo sapiens) (UniProt P98170+Q96SW2); assay: PROTAC activity at CRBN/XIAP in human MCF7 cells assessed as induction of XIAP degradation at 1 uM measured after 18 hrs by western blot analysis; type: cell-based
Sequence (P98170 whole entry, looked up): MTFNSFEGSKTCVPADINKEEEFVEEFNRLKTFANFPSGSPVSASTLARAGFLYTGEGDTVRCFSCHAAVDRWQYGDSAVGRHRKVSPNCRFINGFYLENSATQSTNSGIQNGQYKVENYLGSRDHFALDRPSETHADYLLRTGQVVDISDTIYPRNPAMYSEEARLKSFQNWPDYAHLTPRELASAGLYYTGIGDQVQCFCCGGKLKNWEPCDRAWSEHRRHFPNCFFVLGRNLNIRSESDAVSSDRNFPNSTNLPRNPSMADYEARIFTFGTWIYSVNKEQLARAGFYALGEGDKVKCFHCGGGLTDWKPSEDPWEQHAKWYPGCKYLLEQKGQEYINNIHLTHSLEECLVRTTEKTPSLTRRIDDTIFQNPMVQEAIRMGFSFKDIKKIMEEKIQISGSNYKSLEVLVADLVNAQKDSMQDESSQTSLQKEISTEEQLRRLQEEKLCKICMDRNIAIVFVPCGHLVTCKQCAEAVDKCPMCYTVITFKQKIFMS
Sequence (Q96SW2 whole entry, looked up): as the sequence (Q96SW2 whole entry, looked up) above
reported.property: Activity (%)

CN[C@@H](C)C(=O)N[C@H](C(=O)N1Cc2cc(OCCCNC(=O)C3CCN(c4ccc5c(c4)C(=O)N(C4CCC(=O)NC4=O)C5=O)CC3)ccc2C[C@H]1C(=O)N[C@@H]1CCCc2ccccc21)C(C)(C)C (some centres not stated)	13
CN[C@@H](C)C(=O)N[C@H](C(=O)N1Cc2cc(OCCCCCNC(=O)C3CCN(c4ccc5c(c4)C(=O)N(C4CCC(=O)NC4=O)C5=O)CC3)ccc2C[C@H]1C(=O)N[C@@H]1CCCc2ccccc21)C(C)(C)C (some centres not stated)	78
CN[C@@H](C)C(=O)N[C@H](C(=O)N1Cc2cc(OCCCCCNc3cccc4c3C(=O)N(C3CCC(=O)NC3=O)C4=O)ccc2C[C@H]1C(=O)N[C@@H]1CCCc2ccccc21)C(C)(C)C (some centres not stated)	65

[P] CNC(C)C(=O)NC(C(=O)N1Cc2cc(OCCCCCNc3ccc4c(c3)C(=O)N(C3CCC(=O)NC3=O)C4=O)ccc2C[C@H]1C(=O)NC1CCCc2ccccc21)C(C)(C)C (single isomer, unassigned)
[Q] CN[C@@H](C)C(=O)N[C@H](C(=O)N1Cc2cc(OCCOCCNC(=O)C3CCN(c4ccc5c(c4)C(=O)N(C4CCC(=O)NC4=O)C5=O)CC3)ccc2C[C@H]1C(=O)N[C@@H]1CCCc2ccccc21)C(C)(C)C (some centres not stated)
[R] CN[C@@H](C)C(=O)N[C@H](C(=O)N1Cc2cc(OCCCCCNC(=O)C3CN(c4ccc5c(c4)C(=O)N(C4CCC(=O)NC4=O)C5=O)C3)ccc2C[C@H]1C(=O)N[C@@H]1CCCc2ccccc21)C(C)(C)C (some centres not stated)
[S] CN[C@@H](C)C(=O)N[C@H](C(=O)N1Cc2cc(OCCCCCCCCNC(=O)C3CN(c4ccc5c(c4)C(=O)N(C4CCC(=O)NC4=O)C5=O)C3)ccc2C[C@H]1C(=O)N[C@@H]1CCCc2ccccc21)C(C)(C)C (some centres not stated)
Task: Ascending sort, Activity. Response field: labels, in requested order.
Result: Q, R, P, S
(Q: 0%, R: 39%, P: 58%, S: 99%)

###

molecular target: Protein cereblon/Baculoviral IAP repeat-containing protein 3 (Homo sapiens) (UniProt Q13489+Q96SW2); assay: PROTAC activity at CRBN/cIAP2 in human MCF7 cells assessed as induction of cIAP2 degradation at 0.1 uM measured after 18 hrs by western blot analysis; assay type: cell-based
reported.property: Activity (%)

CN[C@@H](C)C(=O)N[C@H](C(=O)N1Cc2cc(OCCCCCNC(=O)C3CCN(c4cccc5c4C(=O)N(C4CCC(=O)NC4=O)C5=O)CC3)ccc2C[C@H]1C(=O)N[C@@H]1CCCc2ccccc21)C(C)(C)C (some centres undefined)	99
CN[C@@H](C)C(=O)N[C@H](C(=O)N1Cc2cc(OCCCCCCCCNC(=O)C3CCN(c4ccc5c(c4)C(=O)N(C4CCC(=O)NC4=O)C5=O)CC3)ccc2C[C@H]1C(=O)N[C@@H]1CCCc2ccccc21)C(C)(C)C (some centres undefined)	98
CN[C@@H](C)C(=O)N[C@H](C(=O)N1Cc2cc(OCCCCCNC(=O)COc3ccc4c(c3)C(=O)N(C3CCC(=O)NC3=O)C4=O)ccc2C[C@H]1C(=O)N[C@@H]1CCCc2ccccc21)C(C)(C)C (some centres undefined)	100
CN[C@@H](C)C(=O)N[C@H](C(=O)N1Cc2cc(O)ccc2C[C@H]1C(=O)N[C@@H]1CCCc2ccccc21)C(C)(C)C	100

###

biological target: Protein cereblon/E3 ubiquitin-protein ligase XIAP (Homo sapiens) (UniProt P98170+Q96SW2); assay: PROTAC activity at CRBN/XIAP in human MCF7 cells assessed as induction of XIAP degradation at 0.1 uM measured after 18 hrs by western blot analysis; format: cell-based
reported.property: Activity (%)

The following compounds have reported results that may help.
CN[C@@H](C)C(=O)N[C@H](C(=O)N1Cc2cc(OCCCCCNc3cccc4c3C(=O)N(C3CCC(=O)NC3=O)C4=O)ccc2C[C@H]1C(=O)N[C@@H]1CCCc2ccccc21)C(C)(C)C (stereo not given in full)	81
CN[C@@H](C)C(=O)N[C@H](C(=O)N1Cc2cc(OCCCCCNC(=O)C3CCN(c4cccc5c4C(=O)N(C4CCC(=O)NC4=O)C5=O)CC3)ccc2C[C@H]1C(=O)N[C@@H]1CCCc2ccccc21)C(C)(C)C (stereo not given in full)	91
CN[C@@H](C)C(=O)N[C@H](C(=O)N1Cc2cc(OCCCCCCCCNC(=O)C3CN(c4ccc5c(c4)C(=O)N(C4CCC(=O)NC4=O)C5=O)C3)ccc2C[C@H]1C(=O)N[C@@H]1CCCc2ccccc21)C(C)(C)C (stereo not given in full)	99

[a] CN[C@@H](C)C(=O)N[C@H](C(=O)N1Cc2cc(OCCCCCCCCNC(=O)C3CCN(c4ccc5c(c4)C(=O)N(C4CCC(=O)NC4=O)C5=O)CC3)ccc2C[C@H]1C(=O)N[C@@H]1CCCc2ccccc21)C(C)(C)C (stereo not given in full)
[b] CN[C@@H](C)C(=O)N[C@H](C(=O)N1Cc2cc(O)ccc2C[C@H]1C(=O)N[C@@H]1CCCc2ccccc21)C(C)(C)C
Task: Kindly compare a with b and tell me which has the lower Activity figure. To answer, give the label that identifies your chosen option.
Result: b
